Tested on: SARS-CoV-2
Experiment: microbe, parasite or virus in culture
Assay type: cell-based
Details: Severe acute respiratory syndrome coronavirus 2, VeroE6/TMPRSS2, strain hCoV-19/Japan/TY11-927-P1/2021 (Delta, B.1.617.2), mean; read-out: EC50 on cytopathic effects
EC50: recorded values
reported-property: EC50 (nM)

[[record]]
compound = "CCC(CC)COC(=O)[C@H](C)N[P@](=O)(OC[C@H]1O[C@@](C#N)(c2ccc3c(N)ncnn23)[C@H](O)[C@@H]1O)Oc1ccccc1 [Remdesivir, reference compound]"
system = "SARS-CoV-2"
data_value = 1600

[[record]]
compound = "Cn1cnc(Cn2c(=O)[nH]/c(=N\\c3cc4cn(C)nc4cc3Cl)n(Cc3cc(F)c(F)cc3F)c2=O)n1 [Compound 3]"
system = "SARS-CoV-2"
data_value = 410

